Origin of values: patent US20100196385A1

# TARGET UNDER TEST: T1, full length human DLL4 (human, UniProt Q9NR61 27-685)
# T1 construct: whole, on cells; also called native DLL4 expressed in HEK293 cells
# T1 sequence (Q9NR61 27-685): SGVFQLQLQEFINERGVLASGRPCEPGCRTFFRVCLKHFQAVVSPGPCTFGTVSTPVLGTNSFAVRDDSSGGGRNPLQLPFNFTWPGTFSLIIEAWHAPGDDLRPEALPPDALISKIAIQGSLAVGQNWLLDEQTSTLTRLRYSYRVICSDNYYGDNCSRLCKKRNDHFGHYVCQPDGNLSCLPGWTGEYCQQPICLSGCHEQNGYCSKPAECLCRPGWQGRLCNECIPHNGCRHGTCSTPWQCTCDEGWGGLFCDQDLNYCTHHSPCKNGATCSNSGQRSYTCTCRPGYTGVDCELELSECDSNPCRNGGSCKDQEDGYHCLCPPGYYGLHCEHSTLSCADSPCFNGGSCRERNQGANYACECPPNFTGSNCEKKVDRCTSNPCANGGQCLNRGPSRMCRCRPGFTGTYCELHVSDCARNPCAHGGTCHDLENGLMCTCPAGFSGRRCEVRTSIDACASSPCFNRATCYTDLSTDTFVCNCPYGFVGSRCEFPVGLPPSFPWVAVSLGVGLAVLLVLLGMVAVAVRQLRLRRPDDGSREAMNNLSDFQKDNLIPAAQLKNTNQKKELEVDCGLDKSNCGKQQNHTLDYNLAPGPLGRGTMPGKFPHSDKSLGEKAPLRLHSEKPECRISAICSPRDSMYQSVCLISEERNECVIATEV
# PROTOCOL TEXT: FMAT, hybridoma supernatant, 293T cells with human DLL4
# FL1 annotations

>  <BINDER>
12A1 (antibody, IgG4, V domains shown, Fully human; also used where no isotype is printed) VH: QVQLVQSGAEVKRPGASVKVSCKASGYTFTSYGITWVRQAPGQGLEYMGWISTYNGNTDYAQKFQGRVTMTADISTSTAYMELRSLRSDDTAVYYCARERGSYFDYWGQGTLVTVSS VL: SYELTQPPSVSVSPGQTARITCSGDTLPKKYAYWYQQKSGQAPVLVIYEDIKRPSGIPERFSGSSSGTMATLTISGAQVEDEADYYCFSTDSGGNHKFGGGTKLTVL

>  <FL1>
9520

$$$$
>  <BINDER>
17F3 (antibody, IgG2, V domains shown, Fully human; also used where no isotype is printed) VH: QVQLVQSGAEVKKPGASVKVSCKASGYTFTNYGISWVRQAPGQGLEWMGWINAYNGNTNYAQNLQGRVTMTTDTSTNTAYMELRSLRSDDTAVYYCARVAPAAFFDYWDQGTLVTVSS VL: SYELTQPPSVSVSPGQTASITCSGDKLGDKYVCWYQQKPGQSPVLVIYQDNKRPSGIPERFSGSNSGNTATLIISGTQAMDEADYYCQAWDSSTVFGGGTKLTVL

>  <FL1>
11300

$$$$
>  <BINDER>
2H10 (antibody, IgG4, V domains shown, Fully human; used for IgG4 rows and where no isotype is printed; also called 2H10 IgG4) VH: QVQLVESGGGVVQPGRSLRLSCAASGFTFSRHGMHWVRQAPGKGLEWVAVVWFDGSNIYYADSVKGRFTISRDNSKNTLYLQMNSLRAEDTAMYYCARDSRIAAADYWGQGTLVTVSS VL: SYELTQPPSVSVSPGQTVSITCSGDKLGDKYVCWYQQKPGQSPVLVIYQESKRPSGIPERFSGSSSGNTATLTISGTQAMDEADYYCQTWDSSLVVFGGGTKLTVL

>  <FL1>
10800

$$$$
